target: SSB (single-stranded DNA-binding protein) (UniProt P0AGE0 P0AGE0:2-178); test: NECEEM; 25 mM tetraborate pH 9.4, incubated at room temperature; koff 3.3e-2 s-1, kon 1.2e5 M-1 s-1; details: chain copies: 4; label: 5'-fluorescein
Sequence (P0AGE0 2-178, one chain of several): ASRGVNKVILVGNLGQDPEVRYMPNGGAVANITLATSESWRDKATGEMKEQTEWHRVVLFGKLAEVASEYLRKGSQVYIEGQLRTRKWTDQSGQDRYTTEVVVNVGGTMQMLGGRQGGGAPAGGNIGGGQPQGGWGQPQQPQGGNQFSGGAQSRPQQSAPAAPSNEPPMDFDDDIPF
property name: pKd
API: returns pKd as number; meaning -log10 of concentration in mol/L.

Item under review: GCGGAGCGTGGCAGG (ssDNA) [fDNA 15-mer (DNA-1)] . Reported pKd?
6.55
